The measurements presented in this section are drawn from PubChem BioAssay AID720578.

system-under-test: Crimean-Congo hemorrhagic fever virus L protein viral ovarian tumor (vOTU) protease domain
run-description: CCHFV vOTU protease inhibitor potency, dose response, biochemical, fluorescence, Pep-AMC substrate (AID 720578)
assay-setup: recombinant CCHFV vOTU, Pep-AMC fluorescence cleavage
Calls of active or inactive are those of the source. How the calls were made is not given here.
observation-type: IC50

smiles_text=Cc1ccccc1NC1=C/C(=N\S(=O)(=O)c2ccc(C(=O)O)cc2)c2ccccc2C1=O experimental_value="0.257 µM"
smiles_text=Cc1ccccc1-c1cc2c(nn1)-c1ccccc1C2=O experimental_value="0.457 µM"
smiles_text=COc1ccccc1Nc1cc2cc(Br)ccc2c(=O)[nH]1 experimental_value="1.05 µM"
smiles_text=CC[n+]1c(-c2ccccc2)c2cc(N)ccc2c2ccc(N)cc21 experimental_value="1.56 µM"
smiles_text=Clc1ccc(C2=CSC3=Nc4cccc5cccc(c45)N23)cc1 experimental_value=inactive
smiles_text=Cc1ccc(S(=O)(=O)/N=C2\C=C(Nc3cccc(C(=O)O)c3)C(=O)c3ccccc32)cc1 experimental_value="0.771 µM"
smiles_text=O=C1C(=O)c2cccnc2-c2ncccc21 experimental_value="5.38 µM"
smiles_text=O=C1C(N2CCOCC2)=C(n2nnc3ccccc32)C(=O)c2ccccc21 experimental_value="2.69 µM"
smiles_text=Cc1c(C=O)c(Cl)n(C)c(=O)c1C#N experimental_value=inactive
smiles_text=CC1=C(SCc2ccccc2)C(=O)c2ccccc2C1=O experimental_value="2.51 µM"
smiles_text=COC1=C(N)C(=O)c2nc(C)ccc2C1=O experimental_value="1.37 µM"

---

system-under-test: Crimean-Congo hemorrhagic fever virus L protein viral ovarian tumor (vOTU) protease domain
run-description: CCHFV vOTU protease inhibitor potency, dose response, biochemical, fluorescence, Pep-AMC substrate (AID 720578)
assay-setup: recombinant CCHFV vOTU, Pep-AMC fluorescence cleavage
Active and inactive are the calls of the source. The rule behind the calls is not given here.
Labels: active, inactive

compound=Cc1ccc(NC2=C(N3CCCCC3)C(=O)c3ccccc3C2=O)cc1 assigned_category=active
compound=NC1=C(Br)C(=O)c2ccccc2C1=O assigned_category=active
compound="COCCN1C=C2C(=O)C(C)(OC(=O)C3CCCC3)C(=O)C(c3ccccc3)=C2C=C1CCCC(=O)OC (configuration not stated)" assigned_category=inactive
compound=O=C1C(Nc2ccccc2)=C(N2CCCCC2)C(=O)c2ccccc21 assigned_category=active
compound=O=C(O)CSc1cc(NS(=O)(=O)c2ccc(Br)cc2)c2ccccc2c1O assigned_category=active
compound=O=C(N/N=C1\C/C(=N\NC(=O)c2ccncc2)c2ccccc21)c1ccncc1 assigned_category=active
compound=Cc1ccc(S(=O)(=O)/N=C2\C=C(Nc3cccc(C(=O)O)c3)C(=O)c3ccccc32)c(C)c1 assigned_category=active
compound="CCC(CNc1cc(OC)cc2cccnc12)NC1CCCCC1 (configuration not stated)" assigned_category=active
compound=COc1cc(NC(=O)COC(=O)c2ccc([N+](=O)[O-])s2)cc(OC)c1OC assigned_category=active
compound=CN1CCN(C2=C(Cl)C(=O)c3ccccc3C2=O)CC1 assigned_category=active
compound=CN(C)c1ccc(C=c2c3cc(O)ccc3n3c2cc(-c2ccccc2)[n+]3C)cc1 assigned_category=inactive
compound=O=C1C=C(N2CCOCC2)c2ccccc2C1=O assigned_category=active
compound=CCOC(=O)c1c2c(n(Cc3ccccc3)c1C)C(=O)C(=O)c1ccccc1-2 assigned_category=active
compound=O=c1[nH]c(=S)[nH]c2c1C(c1ccc(Br)cc1)c1c([nH]c(=S)[nH]c1=O)O2 assigned_category=inactive
compound=Cc1c(Cl)cnc(NC(=O)COC(=O)c2ccc([N+](=O)[O-])s2)c1Cl assigned_category=active
compound=CC(=O)N(C)c1ccc(N=Cc2cc3c(cc2[N+](=O)[O-])OCO3)cc1 assigned_category=inactive
compound=COc1cc2c(cc1OC)-c1c(OC)c(OC)cc3c1[C@H](C2)N(C)CC3 assigned_category=active
compound=O=C1C=C(Nc2ccccc2)c2ccccc2C1=O assigned_category=active
compound=CCCCCCCCCCOC(=O)Cn1c(COc2ccc(Cl)cc2)[n+](C)c2ccccc21 assigned_category=inactive
compound=CCCCCCCCCCCCCCCC[n+]1ccccc1 assigned_category=inactive
compound=Nc1ccc(N2CCCCC2)c2nonc12 assigned_category=inactive
compound=CC(=O)Nc1ccc(S(=O)(=O)NC2=C(N3CCN(c4ccc(F)cc4)CC3)C(=O)c3ccccc3C2=O)cc1 assigned_category=inactive
compound=CCc1ccc(S(=O)(=O)Nc2cc(SCC(=O)O)c(O)c3ccccc23)cc1 assigned_category=active
compound=O=C(O)c1ccc(NC2=C(n3nnc4ccccc43)C(=O)c3ccccc3C2=O)cc1 assigned_category=active
compound=CC1(C)C=C2C(=NN(c3ccccc3)C(N)=C2C#N)CO1 assigned_category=active
compound="COc1cc(NCCCC(C)N)c2ncccc2c1 (configuration not stated)" assigned_category=active
compound=COc1ccc2noc3c2c1C(=O)c1ccccc1-3 assigned_category=active
compound=CCCCn1c(NS(=O)(=O)c2ccccc2)c(S(=O)(=O)c2ccc(C)cc2)c2nc3ccccc3nc21 assigned_category=inactive
compound=COc1ccc(-n2c3nc4ccccc4nc3c3c(=N)oc(C)nc32)cc1 assigned_category=inactive
compound="CC1CCCC(NC(=O)COC(=O)c2ccc([N+](=O)[O-])s2)C1C (configuration not stated)" assigned_category=active
compound=NC1=C(Cl)C(=O)c2ccc(S(N)(=O)=O)cc2C1=O assigned_category=active
compound="O=C(NC1=C(NC2CCS(=O)(=O)C2)C(=O)c2ccccc2C1=O)c1ccccc1 (configuration not stated)" assigned_category=active
compound=CCOC(=O)c1c(C)[nH]c2c1-c1ccccc1C(=O)C2=O assigned_category=active
compound=O=C1C=C(O)c2[nH]c(=O)ccc2C1=O assigned_category=active
compound=Cc1oc2c(c1C(=O)N1CCOCC1)C(=O)c1ccccc1C2=O assigned_category=inactive
compound=NS(=O)(=O)c1ccc(NC2=CC(=O)C(=O)c3ccccc32)cc1 assigned_category=active
compound=O=C(NCCCO)c1ccc2nc(-c3ccco3)c(-c3ccco3)nc2c1 assigned_category=active
compound=Nc1cc2c(cc1Br)[nH]c(=O)c1ccccc12 assigned_category=active
compound="N#CC1=C(S)N(c2ccccc2)C(c2ccc(-c3ccc(Cl)c(Cl)c3)o2)NC1=O (configuration not stated)" assigned_category=inactive
compound=O=C(O)c1ccc(NC2=C/C(=N/S(=O)(=O)c3cccs3)c3ccccc3C2=O)cc1 assigned_category=active
compound=COc1cccc2c1C(=O)c1c(O)c3c(c(O)c1C2=O)C[C@@](O)(C(=O)CO)C[C@@H]3O[C@H]1C[C@H](N)[C@H](O)[C@H](C)O1 assigned_category=inactive
compound="O=C1NC(c2ccc(-c3ccccc3[N+](=O)[O-])o2)C(C(=O)c2ccc(Cl)cc2)C(O)(C(F)(F)F)N1 (configuration not stated)" assigned_category=inactive

---

system-under-test: Crimean-Congo hemorrhagic fever virus L protein viral ovarian tumor (vOTU) protease domain
run-description: CCHFV vOTU protease inhibitor potency, dose response, biochemical, fluorescence, Pep-AMC substrate (AID 720578)
assay-setup: recombinant CCHFV vOTU, Pep-AMC fluorescence cleavage
Activity calls are given as the source filed them. The rule behind the calls is not given here.
observation-type: IC50

molecule=COC1=CC(=O)c2c(ccc3ncnc(N)c23)C1=O observation_type=IC50 experimental_value="396 nM"
molecule=COc1cc(C(=O)c2nccc3cc(OC)c(OC)cc23)c([N+](=O)[O-])cc1OC observation_type=IC50 experimental_value="1050 nM"
molecule=CN(C)c1cccc2c1c(NS(=O)(=O)c1cn(C)cn1)nn2C observation_type=IC50 experimental_value=inactive
molecule=O=C1C=C(N2CC2)c2ccccc2C1=O observation_type=IC50 experimental_value="2730 nM"
molecule=COc1ccc(/C=N/NC(=O)c2nn(-c3ccc(Cl)cc3)c(=O)c3c(N)scc23)cc1 observation_type=IC50 experimental_value=inactive
molecule=COC(=O)c1nc(-c2ccc3c(n2)C(=O)C(N)=C(OC)C3=O)c(N)c(-c2ccc(OC)c(OC)c2O)c1C observation_type=IC50 experimental_value="931 nM"
molecule="CC(=O)NC1=C(N(C)C2CCS(=O)(=O)C2)C(=O)c2ccccc2C1=O (stereo unspecified)" observation_type=IC50 experimental_value="8880 nM"
molecule=Cc1ccc(CNc2ccc(O)cc2)cc1 observation_type=IC50 experimental_value=inactive
molecule=C=CCN1C(=O)/C(=C/c2ccc(OC(C)=O)c(OCC)c2[N+](=O)[O-])SC1=S observation_type=IC50 experimental_value="7630 nM"
molecule=O=[N+]([O-])c1ccccc1-c1ccc(C(=S)N2CCCC2)o1 observation_type=IC50 experimental_value=inactive
molecule=Cc1cnc(C=NNC(N)=S)c2cccc(N)c12 observation_type=IC50 experimental_value="2950 nM"

---

system-under-test: Crimean-Congo hemorrhagic fever virus L protein viral ovarian tumor (vOTU) protease domain
run-description: CCHFV vOTU protease inhibitor potency, dose response, biochemical, fluorescence, Pep-AMC substrate (AID 720578)
assay-setup: recombinant CCHFV vOTU, Pep-AMC fluorescence cleavage
The source made the active and inactive calls. No rule for the calls is given here.
observation-type: IC50

compound=Cc1cc2c(cc1C)C(=O)C(Br)=C(N)C2=O system_under_test="Crimean-Congo hemorrhagic fever virus L protein viral ovarian tumor (vOTU) protease domain" experimental_value="5.56 µM"
compound="CC1OC2CC(=O)OC2C2=C1C(=O)c1c(O)cccc1C2=O (stereo unspecified)" system_under_test="Crimean-Congo hemorrhagic fever virus L protein viral ovarian tumor (vOTU) protease domain" experimental_value="3.45 µM"
compound="CCC(C)n1c(NC(=O)c2ccccc2)c(C#N)c2nc3ccccc3nc21 (stereo unspecified)" system_under_test="Crimean-Congo hemorrhagic fever virus L protein viral ovarian tumor (vOTU) protease domain" experimental_value="8.97 µM"
compound="CCN(CC)CCCC(C)n1c2nc(=O)[nH]c(=O)c-2nc2cc(Cl)ccc21 (stereo unspecified)" system_under_test="Crimean-Congo hemorrhagic fever virus L protein viral ovarian tumor (vOTU) protease domain" experimental_value="2.5 µM"
compound=Nc1scc2c(C(=O)N/N=C/c3ccc(Cl)cc3)nn(-c3ccccc3)c(=O)c12 system_under_test="Crimean-Congo hemorrhagic fever virus L protein viral ovarian tumor (vOTU) protease domain" experimental_value=inactive
compound=CCOc1ccc(NC(=S)Nc2ccc3nsnc3c2)cc1 system_under_test="Crimean-Congo hemorrhagic fever virus L protein viral ovarian tumor (vOTU) protease domain" experimental_value="7.51 µM"
compound=CCOc1ccc2noc3c2c1C(=O)c1ccccc1-3 system_under_test="Crimean-Congo hemorrhagic fever virus L protein viral ovarian tumor (vOTU) protease domain" experimental_value=inactive
compound=COc1cc(Br)c(C(=O)c2nccc3cc(OC)c(OC)cc23)cc1OC system_under_test="Crimean-Congo hemorrhagic fever virus L protein viral ovarian tumor (vOTU) protease domain" experimental_value="0.27 µM"
compound="CC1COCC(C)N1C1=C(Cl)C(=O)c2ccccc2C1=O (stereo unspecified)" system_under_test="Crimean-Congo hemorrhagic fever virus L protein viral ovarian tumor (vOTU) protease domain" experimental_value="5.07 µM"
compound=C[n+]1c(-c2ccccc2)cc2c(=Cc3ccc([N+](=O)[O-])cc3)c3ccccc3n21 system_under_test="Crimean-Congo hemorrhagic fever virus L protein viral ovarian tumor (vOTU) protease domain" experimental_value=inactive
compound=CN(C)c1ncc(C2=C(Cl)C(=O)C(N3CCCC3)=C(Cl)C2=O)s1 system_under_test="Crimean-Congo hemorrhagic fever virus L protein viral ovarian tumor (vOTU) protease domain" experimental_value=inactive
